Each entry below carries its recorded inhibition.
Target: Glucose transporter (Leishmania mexicana) (UniProt O61059)
Assay: ST_JUDE_LEISH: Cytotoxicity at 2uM final concentration against transgenic Leishmania Mexicana promastigotes LmGT2 that are glucose transport deficient and complemented with the L. Mexicana glucose transporter 2. Activity is measured by DNA content using SYBR green in vitro
Format: functional
READOUT_TYPE: inhibition (%)

{"columns": ["COMPOUND", "UNIT_STRING", "EXPERIMENTAL_VALUE"],
 "data": [
  ["NCC1CCCN1Cc1cccc(-c2cccc(-c3nc4cc(F)ccc4[nH]3)c2)c1 (centres undefined)", "%", 1.02],
  ["COc1cc(C)nc2ccc(NC(=O)Nc3cccc4ccccc34)cc12", "%", 3.45],
  ["Cc1ccc(C2CCN(CCCCNC(=O)c3ccc(NC(=O)c4ccc(Cl)cc4)cc3)CC2)c(OCC(F)(F)F)c1", "%", 0.66],
  ["Fc1ccc2[nH]c(-c3cccc(-c4cccc(CNCCN5CCNCC5)c4)c3)nc2c1", "%", 0.88],
  ["Cc1cccc(CNc2nccc3[nH]c4ccccc4c23)c1", "%", 1.28],
  ["CCNc1cc(C(=O)N[C@@H](Cc2ccccc2)[C@H](O)CNC(C)(C)Cc2cccc(OC)c2)cc(N2CCCC2=O)c1", "%", -0.38],
  ["O=c1cc(NCCCNCc2[nH]c3cc(Cl)ccc3c2Cl)[nH]c2ccccc12", "%", 4.15],
  ["Cc1cccc2nc(-c3ccc(-c4ccc(CNCc5ccccc5)cc4)cc3)[nH]c12", "%", 4.35],
  ["CN(C)CCCOc1ccc(CNCC(C)(C)c2nc(-c3ccc(Cl)c(O)c3)c(-c3ccncc3)[nH]2)cc1", "%", 2.83]
]}
